# Assay: protein stability index of a GFP-peptide fusion (yeast GPS) (PSI 1-4); higher = more stable; sorted into four equal gates, so the index is relative within each strain
# Test context: ubr1∆
Would you please tag the item Satisfied when its protein stability index is 3 or above, and Not satisfied when it is below?

# input Record PSKGQSLSKISQAFDIV [RPP1] ; criterion: protein stability index no lower than 3. Met?
# output Satisfied

# input Record GQLTGIYRYKYKVMHQI [PRP8] ; criterion: protein stability index no lower than 3. Met?
# output Not satisfied

# input Record SLAATYSMISLQNCCII [ARP9] ; criterion: protein stability index no lower than 3. Met?
# output Not satisfied

# input Record YVNYEISTAKAWGALIT [YML103C/NUP188] ; criterion: protein stability index no lower than 3. Met?
# output Not satisfied

# input Record LMTSHTKGDTSKATGAP [RTT102] ; criterion: protein stability index no lower than 3. Met?
# output Satisfied

# input Record AILYTKPGHVLQEEWDQ [YGR119C/NUP57] ; criterion: protein stability index no lower than 3. Met?
# output Satisfied

# input Record ASKLAAYNKKSTISARE [HTB1] ; criterion: protein stability index no lower than 3. Met?
# output Satisfied

# input Record GSYIDKKCPFTGLVSIR [RPS11A] ; criterion: protein stability index no lower than 3. Met?
# output Not satisfied

# input Record AYSMGAQNQGGQVSMSQ [PGD1] ; criterion: protein stability index no lower than 3. Met?
# output Satisfied

# input Record KTARGKAALERLKVFEG [RPL16A] ; criterion: protein stability index no lower than 3. Met?
# output Not satisfied

# input Record KIVFILDSDSENDLSFA [RRI2] ; criterion: protein stability index no lower than 3. Met?
# output Not satisfied

# input Record SNVYLSLVNSYIIDSPQ [COB] ; criterion: protein stability index no lower than 3. Met?
# output Not satisfied

# input Record NKYQIKKAVKELYEVDV [RPL25] ; criterion: protein stability index no lower than 3. Met?
# output Satisfied

# input Record AKLESLLENSVDKNFDK [MTW1] ; criterion: protein stability index no lower than 3. Met?
# output Satisfied

# input Record TAETGYIQRRLVKALED [RPO21] ; criterion: protein stability index no lower than 3. Met?
# output Not satisfied

# input Record VELIESKINELSYYVEE [SMC4] ; criterion: protein stability index no lower than 3. Met?
# output Satisfied

# input Record DVVYALKRQGRTLYGFG [HHF1] ; criterion: protein stability index no lower than 3. Met?
# output Not satisfied

# input Record PRETIPFLHLRKKTPAG [FAS2] ; criterion: protein stability index no lower than 3. Met?
# output Not satisfied

# input Record TEYGRKYNVNISALTQT [PRP8] ; criterion: protein stability index no lower than 3. Met?
# output Not satisfied

# input Record TQAKKLYHHTTKTILSG [SRP72] ; criterion: protein stability index no lower than 3. Met?
# output Satisfied
